The measurements presented in this section are drawn from paper PMC2635431.

Below is a list of entries, each paired with its recorded Enhancement Ratio (Emax) value.
- Tested on: human epidermal membrane (HEM)
- testProtocol: Passive transport of corticosterone
- Assay type: in vitro ADME
- condition: Protocol II; CS lipoidal pathway permeability vs PBS control (Eq. 3)
Number, no unit, nothing else.

# count of solved cases: 4
Value (Enhancement Ratio (Emax), human epidermal membrane (HEM)) for record CCCCC(CC)COC(=O)c1ccccc1O (centres unmarked) [OS, 2-Ethylhexyl 2-hydroxybenzoate] = 5.0

Value (Enhancement Ratio (Emax), human epidermal membrane (HEM)) for record CCCCCCCCCCCCCC(=O)OC(C)C [IPM, Propan-2-yl tetradecanoate] = 2.8

Value (Enhancement Ratio (Emax), human epidermal membrane (HEM)) for record CCCCCCCCCCCO = 17

Value (Enhancement Ratio (Emax), human epidermal membrane (HEM)) for record CCCCCCCC/C=C\CCCCCCCCO [OA, (Z)-Octadec-9-en-1-ol] = 5.5

Continuing:
Value (Enhancement Ratio (Emax), human epidermal membrane (HEM)) for record CCCCC(CC)COC(=O)c1ccc(N(C)C)cc1 (centres unmarked) [PADO, 2-Ethylhexyl 4-(dimethylamino) benzoate] = 4.1
